Ok so here's the combined literature set: IC50 for Somatostatin receptor type 2 (Homo sapiens, UniProt P30874).

Molecule	IC50
CC(C)NCc1ccc(C[C@@H]2NC(=O)[C@@H](N(C)C(=O)c3ccc4ccccc4c3)NC(=O)[C@H](Cc3ccccc3)NC(=O)[C@@H](N)CSSC[C@@H](C(N)=O)NC(=O)[C@H](Cc3ccc(O)cc3)NC2=O)cc1	> 1000 nM
CC(C)NCc1ccc(C[C@@H]2NC(=O)[C@@H](N(C)C(=O)c3ccc4ccccc4c3)NC(=O)[C@H](Cc3ccccc3)NC(=O)[C@@H](NC(=O)[C@H](N)Cc3ccc(O)cc3)CSSC[C@@H](C(=O)N[C@H](C(N)=O)[C@@H](C)O)NC(=O)[C@H](Cc3ccccc3)NC2=O)cc1	> 1000 nM
CCN=C(NCC)NCCCC[C@@H]1NC(=O)[C@@H](Cc2c[nH]c3ccccc23)NC(=O)[C@H](Cc2ccccc2)NC(=O)[C@H](Cc2ccccc2)NC(=O)[C@H](CCCCN)NC(=O)[C@@H](N)CSSC[C@@H](C(=O)O)NC(=O)[C@H](CO)NC(=O)[C@H]([C@@H](C)O)NC(=O)[C@H](Cc2ccccc2)NC(=O)[C@H]([C@@H](C)O)NC1=O	> 10000 nM

Request: Supply IC50 measured with Somatostatin receptor type 2 (Homo sapiens, UniProt P30874) for CC(C)NCc1ccc(C[C@@H]2NC(=O)[C@@H](Cc3c[nH]c4ccccc34)NC(=O)[C@@H]3CCC(=O)NCCCCC[C@H](NC(=O)[C@H](Cc4ccccc4)NC(=O)[C@H]([C@@H](C)O)NC2=O)C(=O)N[C@@H](CO)C(=O)N[C@H](C(=O)O)CSSC[C@H](NC(=O)[C@@H](N)Cc2ccc(O)cc2)C(=O)N[C@@H](CCCCN)C(=O)N[C@@H](Cc2ccccc2)C(=O)N3)cc1 .
Sequence (P30874 whole entry): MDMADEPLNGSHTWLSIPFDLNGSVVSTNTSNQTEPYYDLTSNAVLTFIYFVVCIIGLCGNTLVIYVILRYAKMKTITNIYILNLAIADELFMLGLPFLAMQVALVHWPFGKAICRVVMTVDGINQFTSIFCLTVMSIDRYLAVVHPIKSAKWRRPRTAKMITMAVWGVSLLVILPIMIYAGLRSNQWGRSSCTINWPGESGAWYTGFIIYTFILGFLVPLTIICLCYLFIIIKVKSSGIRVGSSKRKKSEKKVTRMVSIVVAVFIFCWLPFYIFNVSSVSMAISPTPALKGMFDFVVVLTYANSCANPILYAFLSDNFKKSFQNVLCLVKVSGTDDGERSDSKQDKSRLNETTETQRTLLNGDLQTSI
Result: > 1000 nM

Request: Supply IC50 measured with Somatostatin receptor type 2 (Homo sapiens, UniProt P30874) for CC(C)NCc1ccc(C[C@@H]2NC(=O)[C@@H](Cc3c[nH]c4ccccc34)NC(=O)[C@@H]3CCC(=O)NCCCC(=O)NCC[C@H](NC(=O)[C@H](Cc4ccccc4)NC(=O)[C@H]([C@@H](C)O)NC2=O)C(=O)N[C@@H](CO)C(=O)N[C@H](C(=O)O)CSSC[C@H](NC(=O)[C@@H](N)Cc2ccc(O)cc2)C(=O)N[C@@H](CCCCN)C(=O)N[C@@H](Cc2ccccc2)C(=O)N3)cc1 .
Result: > 1000 nM

Request: Supply IC50 measured with Somatostatin receptor type 2 (Homo sapiens, UniProt P30874) for CC(C)NCc1ccc(C[C@@H]2NC(=O)[C@H](N(C)C(=O)c3ccc4ccccc4c3)NC(=O)[C@H](Cc3ccccc3)NC(=O)[C@@H](N)CSSC[C@@H](C(N)=O)NC(=O)[C@H](Cc3ccc(O)cc3)NC2=O)cc1 .
Result: > 1000 nM

Request: Supply IC50 measured with Somatostatin receptor type 2 (Homo sapiens, UniProt P30874) for CC(C)NCc1ccc(C[C@H]2C(=O)N[C@@H]([C@@H](C)O)C(=O)N[C@@H](Cc3ccc(O)c(I)c3)C(=O)N[C@@H]3CCCCCCNC(=O)CC[C@H](NC(=O)[C@H](Cc4ccccc4)NC(=O)[C@H](CCCCN)NC(=O)[C@@H](N)CSSC[C@@H](C(=O)O)NC(=O)[C@H](CO)NC3=O)C(=O)N[C@H](Cc3c[nH]c4ccccc34)C(=O)N2C)cc1 .
Result: > 1000 nM

Request: Supply IC50 measured with Somatostatin receptor type 2 (Homo sapiens, UniProt P30874) for C[C@@H](O)[C@@H]1NC(=O)[C@H](CCCCN)NC(=O)[C@H](Cc2c[nH]c3ccccc23)NC(=O)N(C)[C@@H](C(=O)c2ccccc2)NC(=O)[C@@H](Cc2ccccc2)NC(=O)[C@@H](N)CSSC[C@@H](C(=O)O)NC(=O)[C@H](Cc2ccccc2)NC1=O (stereo in doubt) .
Result: > 1000 nM
